Tested on: CCRIS mutagenicity, Ames/micronucleus/aberration tests
TEST SUMMARY: CCRIS mutagenicity studies
CONDITION SUMMARY: Test System: AMES SALMONELLA TYPHIMURIUM; Strain/Indicator: TA1537; Metabolic Activation: RAT, LIVER, S-9, AROCLOR 1254; Method: STANDARD PLATE
Active and inactive are the calls of the source. The rule behind the calls is not given here.
The reply should be one of these categories: active, inactive

MOLECULE	ASSIGNED CLASS
C#C[C@]1(O)CC[C@H]2[C@@H]3CCC4=C(CCC(=O)C4)[C@H]3CC[C@@]21C	inactive
C[C@]12CC[C@H](OC(=O)/C=C/c3cccc(N(CCCl)CCCl)c3)C[C@@H]1CC[C@@H]1[C@@H]2CC[C@]2(C)NC(=O)CC[C@@H]12	inactive
O=S(=O)(Nc1ccc(Cl)cc1Cl)c1cccc2cccnc12	inactive
O=C1c2ccccc2C(=O)c2c(O)c(O)cc(O)c21	active
CCCCC(CC)COC(=O)c1ccc(N(C)C)c([N+](=O)[O-])c1 (stereo not given)	active

Recorded test outcome, item Cc1cc(O)c2c(c1)C(=O)c1c(c(O)cc(O)c1-c1c(O)cc(O)c3c1C(=O)c1cc(C)cc(O)c1C3=O)C2=O
inactive

Recorded test outcome, item C=CCc1ccc(O)cc1
inactive

Recorded test outcome, item CCN(N=O)c1ccccc1
inactive

----------
Test system: CCRIS mutagenicity, Ames/micronucleus/aberration tests
TEST SUMMARY: CCRIS mutagenicity studies
CONDITION SUMMARY: Test System: AMES SALMONELLA TYPHIMURIUM; Strain/Indicator: TA100; Metabolic Activation: RAT, LIVER, S-9, AROCLOR 1254; Method: STANDARD PLATE
Excerpt: The CCRIS database contains chemical records with carcinogenicity, mutagenicity, tumor promotion, and tumor inhibition test results. It was developed by the National Cancer Institute (NCI). Data are derived from studies cited in primary journals, current awareness tools, NCI reports, and other sources. Test results have been reviewed by experts in carcinogenesis and mutagenesis. CCRIS provides historical information from the years 1985 - 2011. It is no longer updated. […]
Activity calls are given as the source filed them. No rule for the calls is given here.
ASSAY METRIC: mutagenic call

Below: 5 compounds and their reported mutagenic call.
COMPOUND	mutagenic call
Nc1ccc(N=Nc2ccc3c(c2)C(=O)/C(=N/Nc2ccc(Nc4ccc(N/N=C5/C(=O)c6cc(N=Nc7ccc(N)cc7N)ccc6C=C5S(=O)(=O)O)cc4S(=O)(=O)O)cc2)C(S(=O)(=O)O)=C3)c(N)c1	inactive; negative
Cc1cc(C)c(S(=O)(=O)O)cc1N=Nc1cc(S(=O)(=O)O)c2ccccc2c1O	inactive; negative
C[C@H]1[C@H](C)CC[C@]2(C(=O)O[C@@H]3O[C@H](CO[C@@H]4O[C@H](CO)[C@@H](O[C@@H]5O[C@@H](C)[C@H](O)[C@@H](O)[C@H]5O)[C@H](O)[C@H]4O)[C@@H](O)[C@H](O)[C@H]3O)CC[C@]3(C)C(=CC[C@@H]4[C@@]5(C)C[C@@H](O)[C@H](O)[C@@](C)(CO)[C@@H]5CC[C@]43C)[C@H]12	inactive; negative
CN(C)c1ccc(C(=C2C=CC(=N)C=C2)c2ccc(N(C)C)cc2)cc1	inactive; negative
COc1ccc2[nH]cc(CCNC(C)=O)c2c1	inactive; negative

Consider the compound O=C(CCCN1CCC(O)(c2ccc(Cl)cc2)CC1)c1ccc(F)cc1 and give its recorded mutagenic call.
inactive; negative

Consider the compound Cc1cc(Cl)ccc1O and give its recorded mutagenic call.
active; positive

Consider the compound Cc1ccc(N=Cc2cccc3cccnc23)c(C(=O)O)c1 and give its recorded mutagenic call.
inactive; negative

Consider the compound COC(=O)c1ccc(O)cc1 and give its recorded mutagenic call.
inactive; negative

Consider the compound OCC1CO1 (stereo not drawn) and give its recorded mutagenic call.
active; positive

Consider the compound Cc1c2ccccc2cc2c1ccc1ccccc12 and give its recorded mutagenic call.
active; positive

Consider the compound CC1(C)CC[C@]2(C(=O)O)CC[C@]3(C)C(=CC[C@@H]4[C@@]5(C)C[C@H](O)[C@H](O)[C@@](C)(C(=O)O)[C@@H]5CC[C@]43C)[C@@H]2C1 and give its recorded mutagenic call.
inactive; negative

Consider the compound NCc1cccc(CN)c1 and give its recorded mutagenic call.
inactive; negative

Consider the compound O=C(O)c1ccccc1Nc1cc(Cl)ccc1C(=O)O and give its recorded mutagenic call.
inactive; negative

----------
System: CCRIS mutagenicity, Ames/micronucleus/aberration tests
TEST SUMMARY: CCRIS mutagenicity studies
CONDITION SUMMARY: Test System: AMES SALMONELLA TYPHIMURIUM; Strain/Indicator: TA98; Metabolic Activation: S-9; Method: STANDARD PLATE
Excerpt: The CCRIS database contains chemical records with carcinogenicity, mutagenicity, tumor promotion, and tumor inhibition test results. It was developed by the National Cancer Institute (NCI). Data are derived from studies cited in primary journals, current awareness tools, NCI reports, and other sources. Test results have been reviewed by experts in carcinogenesis and mutagenesis. CCRIS provides historical information from the years 1985 - 2011. It is no longer updated. […]
Active and inactive are the calls of the source. How the calls were made is not given here.
The reply should be one of these categories: active, inactive

Use these answered entries as a reference point.
SMI	ASSIGNED CLASS
CN(N=O)C(=O)c1c(N(C)N=O)ncn1C	inactive
CCCCCCNC(=O)n1cc(F)c(=O)[nH]c1=O	inactive

Here is the next item to consider.
Recorded test outcome, item Nc1ccc(/C=C/c2ccc([N+](=O)[O-])cc2)cc1
active

----------
Test system: CCRIS mutagenicity, Ames/micronucleus/aberration tests
TEST SUMMARY: CCRIS mutagenicity studies
CONDITION SUMMARY: Test System: AMES SALMONELLA TYPHIMURIUM; Strain/Indicator: TA1535; Metabolic Activation: NONE; Method: STANDARD PLATE
The source made the active and inactive calls. How the calls were made is not given here.
The reply should be one of these categories: 1 (yes) = active, 0 (no) = inactive

Use these answered entries as a reference point.
MOLECULE	ASSIGNED CLASS
CS(=O)(=O)OC[C@H](O)[C@@H](O)COS(C)(=O)=O	1 (yes)
C1OCOCO1	0 (no)
CCc1cc(O)cc2c3c([nH]c12)C(CC)(CC(=O)O)OCC3 (centres undefined)	0 (no)

Recorded test outcome, item O=C(Cn1c(=O)sc2ccccc21)OCc1ccccc1
0 (no)

Recorded test outcome, item Oc1ccccc1-c1ccccc1
0 (no)

Recorded test outcome, item CN1CCN=N1
1 (yes)

----------
Tested on: CCRIS mutagenicity, Ames/micronucleus/aberration tests
TEST SUMMARY: CCRIS mutagenicity studies
CONDITION SUMMARY: Test System: AMES SALMONELLA TYPHIMURIUM; Strain/Indicator: TA100; Metabolic Activation: HAMSTER, LIVER, S-9, AROCLOR 1254 (10%); Method: PREINCUBATION
From the text: The CCRIS database contains chemical records with carcinogenicity, mutagenicity, tumor promotion, and tumor inhibition test results. It was developed by the National Cancer Institute (NCI). Data are derived from studies cited in primary journals, current awareness tools, NCI reports, and other sources. Test results have been reviewed by experts in carcinogenesis and mutagenesis. CCRIS provides historical information from the years 1985 - 2011. It is no longer updated. […]
Activity calls are given as the source filed them. How the calls were made is not given here.
The reply should be one of these categories: t (active), f (inactive)

Use these answered entries as a reference point.
COMPOUND	ASSIGNED CLASS
O=C(O)CS	f
C/C(C=O)=C\c1ccccc1	f
CC(C)CC(C)Nc1ccc(Nc2ccccc2)cc1 (centres undefined)	f
COc1cc([N+](=O)[O-])ccc1N=NC(C(C)=O)C(=O)Nc1ccccc1OC (centres undefined)	f
CCOC(/C=C(\C)CCC=C(C)C)OCC	f

Recorded test outcome, item O=C/C=C/c1ccco1
f

Recorded test outcome, item O=C1OC(=O)c2cc([N+](=O)[O-])ccc21
f

Recorded test outcome, item CN(C)CCCN
f

Recorded test outcome, item [O]=[Cd]
f

Recorded test outcome, item CC(C)CC(C)N (centres undefined)
f

----------
Tested on: CCRIS mutagenicity, Ames/micronucleus/aberration tests
TEST SUMMARY: CCRIS mutagenicity studies
CONDITION SUMMARY: Test System: AMES SALMONELLA TYPHIMURIUM; Strain/Indicator: TA97; Metabolic Activation: RAT, LIVER, S-9, AROCLOR 1254; Method: STANDARD PLATE
Activity calls are given as the source filed them. No rule for the calls is given here.
The reply should be one of these categories: T for active, F for inactive

Use these answered entries as a reference point.
MOLECULE	ASSIGNED CLASS
CCCCC(CC)COC(=O)c1ccccc1C(=O)O (stereo not given)	F
Cc1cc(Cl)ccc1O	T
N#Cc1c(Cl)cccc1Cl	F
CC1(C)CC[C@]2(C(=O)O)CC[C@]3(C)C(=CC[C@@H]4[C@@]5(C)C[C@H](O)[C@H](O)[C@@](C)(C(=O)O)[C@@H]5CC[C@]43C)[C@@H]2C1	F
CN=C1C=CC(=C(c2ccc(N(C)C)cc2)c2ccc(N(C)C)cc2)C=C1	F

Recorded test outcome, item O=c1cc(-c2ccc(O)cc2)oc2cc(O)cc(O)c12
F

Recorded test outcome, item O=CN(O)c1ccc(Cl)c(Cl)c1
F

Recorded test outcome, item S=C1SSC2=NCCN12
F

Recorded test outcome, item Cc1c(N=O)c(=O)n(-c2ccccc2)n1C
T

Recorded test outcome, item O=C(O)C[C@H](NC(=O)COc1cc(Cl)c(Cl)cc1Cl)C(=O)O
F

Recorded test outcome, item CCOC(=O)c1[nH]c2ccccc2c1N=Cc1ccc([N+](=O)[O-])cc1
F

Recorded test outcome, item Cc1ccc2ccc3c(ccc4c5cccc(C)c5ccc43)c2c1
F

Recorded test outcome, item CN(C)c1ccc(C(=C2C=CC(=N)C=C2)c2ccc(N(C)C)cc2)cc1
F

Recorded test outcome, item c1ccccc1
F

Recorded test outcome, item Cc1cc(O)ccc1Cl
T

Recorded test outcome, item Cc1cc(Cl)ccc1OC(C)C(=O)O (stereo not given)
F

Recorded test outcome, item O=S(c1cc(Cl)cc(Cl)c1O)c1cc(Cl)cc(Cl)c1O
F

Recorded test outcome, item COc1c(Cl)ccc(Cl)c1C(=O)O
F

Recorded test outcome, item Cc1c(N)c(=O)n(-c2ccccc2)n1C
T

Recorded test outcome, item Cc1c2c3ccccc3nc-2n(C)c2ccccc12
T
